Reported inhibition values follow for various molecules
- TESTED_SYSTEM: Cannabinoid receptor 2 (Homo sapiens, UniProt P34972)
- Sequence (P34972 whole entry): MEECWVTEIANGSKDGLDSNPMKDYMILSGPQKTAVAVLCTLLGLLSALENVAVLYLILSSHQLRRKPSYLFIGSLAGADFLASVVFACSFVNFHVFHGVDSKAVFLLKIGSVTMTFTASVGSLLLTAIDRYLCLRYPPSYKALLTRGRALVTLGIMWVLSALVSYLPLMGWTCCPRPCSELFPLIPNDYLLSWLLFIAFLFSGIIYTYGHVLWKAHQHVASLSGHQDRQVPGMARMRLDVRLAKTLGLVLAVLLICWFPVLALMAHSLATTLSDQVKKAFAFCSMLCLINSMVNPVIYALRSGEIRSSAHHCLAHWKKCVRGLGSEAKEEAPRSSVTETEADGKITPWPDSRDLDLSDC
- ASSAY_EXPLANATION: Antagonist activity at human CB2 receptor expressed in CHO cells assessed as inhibition of CP55940-induced Ca2+ flux at 10 uM preincubated for 10 mins followed by agonist addition by Fluor-4 AM dye based assay
- Type: functional, cell-based

Example entries and their recorded answers appear below.
O=C(O)CCCCn1c(C(=O)NC23CC4CC(CC(C4)C2)C3)cc2ccccc21 < 50%
O=C(NC12CC3CC(CC(C3)C1)C2)c1cn(CCN2CCOCC2)c2ccccc12 < 50%
N#CCCCn1c(C(=O)NC23CC4CC(CC(C4)C2)C3)cc2ccccc21 < 50%
Cc1cccc2c(C(=O)NC34CC5CC(CC(C5)C3)C4)cn(CCN3CCOCC3)c12 < 50%

Turning to the following molecule.
In: Report inhibition, nothing else, for this molecule: COCCCCCn1cc(C(=O)NC23CC4CC(CC(C4)C2)C3)c2ccccc21
Out: < 50%

Origin of the recorded values: ChEMBL document CHEMBL4038324
